Reported melting point by item:

QUERY: Given the entry COc1ccc2c(c1)-c1nn(-c3cccc(C(=O)O)c3)cc1CC2 , report its measured melting point.
RESULT: 192 to 193 °C

QUERY: What value of melting point has been recorded for this entry: O=C(O)c1ccc(-n2cc3c(n2)-c2cccc(OC(F)F)c2C3)cc1
RESULT: 277 to 278 °C

QUERY: # lookup: melting point of O=C(O)c1cccc(-c2cnn(-c3ccc(Cl)c(Cl)c3)c2)c1
RESULT: 135 to 138 °C

QUERY: Which melting point is listed for Nc1ccc(-c2cnn(-c3cccc(C(=O)O)c3)c2)cc1 ?
RESULT: 209 to 210 °C

QUERY: Tell me the measured melting point of CCc1ccc(-n2ccc(-c3cccc(C(=O)O)c3)c2)cc1 , please.
RESULT: 190 to 192 °C

QUERY: Quick check: melting point of O=C(O)c1cccc(-n2cc(-c3ccc(O)cc3)cn2)c1 ?
RESULT: 282 to 284 °C

QUERY: Consider the compound shown here: O=C(O)c1cccc(-n2cc(-c3ccc4ccccc4n3)cn2)c1 What is its recorded melting point?
RESULT: 250 to 252 °C

QUERY: Need melting point, item O=C(O)c1ccc(-c2cnn(-c3ccc(C(F)(F)F)cc3)c2)cc1
RESULT: 271 to 273 °C

QUERY: # melting point lookup, item O=C(O)c1ccc(-c2ccn(-c3cccnc3)n2)cc1
RESULT: 280 to 282 °C

QUERY: # query: melting point of entry COC(=O)c1cccc(-n2ccc(-c3cccc(C#N)c3)n2)c1
RESULT: 143 to 145 °C

QUERY: Recorded melting point of O=C(O)c1ccc(-c2ccn(-c3cccc(Cl)c3)c2)cc1 , please.
RESULT: 199 to 201 °C

QUERY: Look up melting point for this compound: Cc1cccc(-c2cnn(-c3ccc(C(=O)O)cc3)c2)c1
RESULT: 251 to 252 °C

QUERY: Report melting point for O=C(O)c1cccc(-c2ccn(-c3cccc(OCc4ccccc4)c3)c2)c1 please.
RESULT: 142 to 144 °C

QUERY: Entry COc1cccc(-c2cnn(-c3cccc(C(=O)O)c3)c2)c1 : reported melting point = ?
RESULT: 157 to 158 °C

QUERY: May I ask what melting point has been recorded for COc1ccc2c(c1)Cc1cn(-c3cccc(C(=O)O)c3)nc1-2 ?
RESULT: 272 to 273 °C

QUERY: Find the recorded melting point belonging to COc1ccc(-n2cc(-c3cc(C(=O)O)ccc3[N+](=O)[O-])cn2)cc1 and report it.
RESULT: 249 to 250 °C

QUERY: I am curious: what melting point value has been reported for O=C(O)c1ccc(-n2cc3c(n2)-c2ccccc2OC3)cc1 ?
RESULT: 308 to 310 °C

QUERY: Quick one: melting point of N#Cc1cccc(-c2nn(-c3ccc(C(=O)O)cc3)c(=O)o2)c1 ?
RESULT: 294 to 295 °C (dec.)

* * *

melting point by entry:

QUERY: Please look up its melting point: O=C(O)c1cccc(-c2ccn(-c3cccs3)n2)c1 [Compound 258]
RESULT: 198 to 199 °C

QUERY: # get_value(readout='melting point', item= COc1ccc(-c2cn(-c3ccc(C(=O)O)cc3)nn2)cc1OC [Compound 272] )
RESULT: 253 to 254 °C

QUERY: Which value of melting point has been reported for COc1cccc2c1CCc1cn(-c3cccc(C(=O)O)c3)nc1-2 [Compound 147] in the records?
RESULT: 232 to 233 °C

QUERY: # query: melting point of entry O=C(O)c1ccc(-n2cc(-c3ccc(F)cc3F)nn2)cc1 [Compound 268]
RESULT: 312 to 313 °C

QUERY: Tell me the measured melting point of Cc1ccc(-n2ccc(-c3ccc(C(=O)O)cc3)c2)cc1F [Compound 244] , please.
RESULT: 264 to 268 °C

QUERY: Recorded melting point of CC(C)c1ccc(-n2cc(-c3cccc(C(=O)O)c3)cn2)cc1 [Compound 228] , please.
RESULT: 212 to 215 °C

QUERY: Recorded melting point for Cc1nc(-c2cccc(C(=O)O)c2)nn1-c1cccc(F)c1 [Compound 34] , please?
RESULT: 236 to 238 °C

QUERY: Consider the compound COc1ccc2c(c1)-c1cn(-c3cccc(C(=O)O)c3)nc1CC2 [Compound 253] and give its measured melting point.
RESULT: 239 to 241 °C

More entries:
QUERY: Please look up its melting point: O=C(O)c1cccc(-n2cc3c(n2)Cc2ccccc2-3)c1 [Compound 146]
RESULT: 246 to 248 °C
